- tested-target: HLA-DR DRB1*0701 (human)
- assay-info: radioligand binding

| binder | unit-annotation | IC50 |
| --- | --- | --- |
| KSEEFQKRLHPYKDFIATLG [PAP_(173-192)] | nM | 132 |
